READOUT KIND: melting point

Study these solved cases before continuing.
> print(dat)
                                    compound   readout.kind        observed.value
 1  CC1(C)[C@@H](C(=O)N[C@@H](Cc2ccc(NC(=O)c3ccc(Cl)cc3)cc2)C(=O)O)CC[C@@]1(C)C(=O)O [Example 128]  melting point         185 to 188 °C
 2  CC1(C)[C@@H](C(=O)N[C@@H](Cc2cn(Cc3ccccc3)cn2)C(=O)O)CC[C@@]1(C)C(=O)O [Example 29]  melting point  258 to 259 °C (dec.)
 3  CC1(C)[C@H](C(=O)O)CC[C@@]1(C)C(=O)N[C@@H](Cc1ccc(NC(=O)c2c(Cl)cccc2Cl)cc1)C(=O)O [Example 250]  melting point         148 to 155 °C
 4  CC1(C)[C@@H](C(=O)N[C@@H](Cc2ccc(NC(=O)c3cc(C(F)(F)F)ccc3C(F)(F)F)cc2)C(=O)O)CC[C@@]1(C)C(=O)O [Example 104]  melting point         148 to 150 °C
 5  CC1(C)[C@@H](C(=O)N[C@@H](Cc2ccc(NC(=O)c3cccnc3Cl)cc2)C(=O)O)CC[C@@]1(C)C(=O)O [Example 208]  melting point         172 to 174 °C
 6  CC1(C)[C@@H](C(=O)N[C@@H](Cc2ccc(NC(=O)c3cccc(C(=O)c4ccccc4)c3)cc2)C(=O)O)CC[C@@]1(C)C(=O)O [Example 89]  melting point         190 to 193 °C
 7  CC1(C)[C@@H](C(=O)N[C@@H](Cc2ccc(NC(=O)c3ccccc3F)cc2)C(=O)O)CC[C@@]1(C)C(=O)O [Example 132]  melting point         117 to 120 °C
 8  CC(=O)N(Cc1c(Cl)cccc1Cl)c1ccc(C[C@H](NC(=O)[C@H]2CC[C@@](C)(C(=O)O)C2(C)C)C(=O)O)cc1 [Example 170]  melting point         241 to 244 °C
 9  CC1(C)[C@@H](C(=O)N[C@@H](Cc2ccc(NC(=O)c3ccc(Cl)nc3Cl)cc2)C(=O)O)CC[C@@]1(C)C(=O)O [Example 209]  melting point         246 to 247 °C
10  Cc1ccc(S(=O)(=O)Nc2ccc(C[C@H](NC(=O)[C@H]3CC[C@@](C)(C(=O)O)C3(C)C)C(=O)O)cc2)cc1 [Example 150]  melting point         220 to 223 °C

Query: Quick check: melting point of CC1(C)[C@@H](C(=O)N[C@@H](Cc2ccc(NC(=O)c3ccccc3)cc2)C(=O)O)CC[C@@]1(C)C(=O)O [Example 85] ?
Result: 145 to 148 °C

Query: # repeat for COc1ccccc1C(=O)Nc1ccc(C[C@H](NC(=O)[C@H]2CC[C@@](C)(C(=O)O)C2(C)C)C(=O)O)cc1 [Example 95]
Result: 140 to 143 °C

Query: Next up: CC1(C)[C@@H](C(=O)N[C@@H](Cc2ccc(OCc3c(Cl)cccc3Cl)c([N+](=O)[O-])c2)C(=O)O)CC[C@@]1(C)C(=O)O [Example 63]
Result: 92 to 94 °C
